Target: HLA-A*0301 (Homo sapiens)
Experiment: biochemical
Type: binding
Settings: allele A*0301; fluorescence polarization competition; read-out: IC50 (nM), in vitro HLA binding affinity
Where a SMILES comes first, the peptide text is derived from it.
IC50 reference
RESULT TYPE: IC50 (nM)

MOLECULE: CC(C)C[C@H](NC(=O)[C@H](CO)NC(=O)[C@H](CCC(=O)O)NC(=O)[C@@H](NC(=O)[C@@H](NC(=O)[C@H](Cc1ccc(O)cc1)NC(=O)[C@H](CCCCN)NC(=O)[C@H](CC(C)C)NC(=O)[C@@H](N)CCCCN)C(C)C)[C@@H](C)O)C(=O)N[C@@H](CCCCN)C(=O)O [RIPR_0425] (H-KLKYVTESLK-OH)
RESULT NUMBER: 3340
//
MOLECULE: CC[C@H](C)[C@H](NC(=O)[C@H](CO)NC(=O)[C@H](CC(N)=O)NC(=O)[C@H](Cc1ccc(O)cc1)NC(=O)[C@H](CO)NC(=O)[C@@H](N)CC(C)C)C(=O)N[C@@H](Cc1ccc(O)cc1)C(=O)N[C@@H](Cc1c[nH]cn1)C(=O)N[C@@H](CCCCN)C(=O)O [RH5_188] (H-LSYNSIYHK-OH)
RESULT NUMBER: 3070
//
MOLECULE: CC(C)C[C@H](NC(=O)[C@H](CO)NC(=O)[C@H](CS)NC(=O)[C@@H]1CCCN1C(=O)[C@H](Cc1ccccc1)NC(=O)[C@H](CC(N)=O)NC(=O)[C@H](CC(N)=O)NC(=O)[C@H](CCC(=O)O)NC(=O)[C@@H](N)C(C)C)C(=O)N[C@@H](Cc1ccc(O)cc1)C(=O)O [AMA1_437] (H-VENNFPCSLY-OH)
RESULT NUMBER: 85400
